Record form. Attribute: signal enhancement. Fill in for each entry.
target: E3 ubiquitin-protein ligase Mdm2 (Homo sapiens); assay: increase of MDM2 autoubiquitination reporter luminescence – cell-based, 1536-well, MDM2 E3 ligase inhibitor project, primary screen (AID 1230); conditions: cell-based MDM2 ubiquitination luciferase reporter, 2 h; at 5 µM; stronger effect = higher value; 0 = plate control, 100 = twice control, blank-subtracted;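 also: luminescence tracks abundance of the self-degrading MDM2-luciferase fusion protein; higher signal means inhibition of MDM2 E3 ligase activity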
Hit rate of the full screen: of about 210,000 compounds, about 220 (0.1%) were called active. Only a selection was taken, and actives are over-represented in it overall.
Give bare numbers, in %.

compound: COC(=O)C1=C(N)Oc2cc(C)[nH]c(=O)c2C1c1ccc(Cl)cc1 (stereo unspecified)
measured-on: E3 ubiquitin-protein ligase Mdm2 (Homo sapiens)
assay-readout: signal enhancement
reported-result: -10.2
--
compound: COc1ccc(COCC(O)CN2CCC(C(N)=O)CC2)cc1 (stereo unspecified)
measured-on: E3 ubiquitin-protein ligase Mdm2 (Homo sapiens)
assay-readout: signal enhancement
reported-result: -1.62

For each entry beneath this line, provide reported signal enhancement.
1. O=C(CCS(=O)(=O)c1ccccc1Cl)Nc1ccc(S(=O)(=O)Nc2ncccn2)cc1
2. CCOc1ccc(C2NC(=S)NC3=C2CCc2ccccc23)cc1 (stereo unspecified)
3. Cc1nc2c(ncn2-c2ccccc2)c(=O)n1NC(=O)CN1CCCC1
4. CS(=O)(=O)c1ccc2nnn(OCC(=O)Nc3cccc(C#N)c3)c2c1

Data returned:
1: -14.3; 2: -16.9; 3: -14.3; 4: -16.9

meta.source: PubChem BioAssay AID1230
